# Tested On: neurokinin-1 (NK-1) receptor (Homo sapiens)
# Construct: endogenously expresses the neurokinin-1 (NK-1) receptor; endogenous in cells; host or cells: U373 human glioblastoma-astrocytoma cells (membranes)
# Sequence (P25103 whole entry): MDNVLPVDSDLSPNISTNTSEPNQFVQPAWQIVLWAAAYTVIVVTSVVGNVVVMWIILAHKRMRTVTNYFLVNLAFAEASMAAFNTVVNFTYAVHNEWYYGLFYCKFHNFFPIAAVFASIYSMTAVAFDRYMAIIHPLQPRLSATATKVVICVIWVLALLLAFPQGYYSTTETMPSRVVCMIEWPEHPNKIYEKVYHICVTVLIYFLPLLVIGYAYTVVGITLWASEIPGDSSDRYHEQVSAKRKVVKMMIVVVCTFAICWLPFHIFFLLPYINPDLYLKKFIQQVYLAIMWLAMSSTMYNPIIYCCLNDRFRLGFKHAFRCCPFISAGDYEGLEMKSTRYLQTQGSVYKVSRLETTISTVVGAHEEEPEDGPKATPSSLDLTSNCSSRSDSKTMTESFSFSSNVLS
# Assay Comment: NK-1 Binding assay ([125I] Substance P competition, U373 cell membranes)
# Study Conditions: Bolton Hunter labeled [125I] Substance P, 30 min at 20° C.
Experimental Endpoint: IC50

Consider the following illustrative entries.
{"columns": ["Molecule", "Experimental Endpoint", "Measured"],
 "data": [
  ["Cc1ccc(C(O)(CCN)COCc2cc(C(F)(F)F)cc(C(F)(F)F)c2)cc1C (stereo not drawn) [Example 32]", "IC50", "1 to 100 nM"],
  ["Cc1ccccc1COCC(O)(CCN)c1ccccc1 (stereo not drawn) [Example 67]", "IC50", "> 300 nM"],
  ["COc1ccc(C(O)(CCN)COCc2cc(C(F)(F)F)cc(C(F)(F)F)c2)c(OC)c1 (stereo not drawn) [Example 46]", "IC50", "> 300 nM"]
]}

IC50 recorded for this molecule, NCCC(O)(COCc1cc(C(F)(F)F)cc(C(F)(F)F)c1)c1cccc2ccccc12 (stereo not drawn) [Example 34] , is 1 to 100 nM

IC50 recorded for this molecule, CN(C)CC(C)(COCc1cc(C(F)(F)F)cc(C(F)(F)F)c1)c1ccccc1 (stereo not drawn) [Example 79] , is 1 to 100 nM

IC50 recorded for this molecule, Cc1cc(Cl)ccc1C(O)(CCN)COCc1cc(C(F)(F)F)cc(C(F)(F)F)c1 (stereo not drawn) [Example 40] , is 1 to 100 nM

IC50 recorded for this molecule, NCCC(O)(CNCc1cc(C(F)(F)F)cc(C(F)(F)F)c1)c1ccccc1 (stereo not drawn) [Example 81] , is 100 to 300 nM

IC50 recorded for this molecule, NCCC(O)(COCc1cc(C(F)(F)F)cc(C(F)(F)F)c1)c1ccc(Cl)c(Cl)c1 (stereo not drawn) [Example 10] , is 1 to 100 nM

IC50 recorded for this molecule, NCCC(O)(COCc1ccc(F)cc1)c1ccccc1 (stereo not drawn) [Example 59] , is > 300 nM
